For each of the compounds below, state its Ki.
biological target: human O-GlcNAcase (hOGA) (Homo sapiens); construct: made in house; host or cells: Escherichia coli BL21(DE3); assay: Enzyme inhibitory activity test against hOGA (4-MU-GlcNAc substrate, end-point fluorescence; Dixon plots for Ki); format: biochemical; conditions: Dixon plots; 4-MU-GlcNAc 40, 20, 10 μM; pH 6.5
Kindly report the value followed by its unit.

Below, each entry is followed by its recorded Ki result.
query: Observed Ki on human O-GlcNAcase (hOGA) (Homo sapiens) for CCC(=O)N[C@@H]1[C@@H](O)[C@H](O)[C@@H](CO)O[C@H]1SCC(=O)NCCCN1C(=O)c2cccc3c(Br)ccc(c23)C1=O [Compound 16l] , please.
result: 0.72 µM

query: Entry CCNC(=O)N[C@@H]1[C@@H](O)[C@H](O)[C@@H](CO)O[C@H]1SCC(=O)NCCCN1C(=O)c2cccc3c(N4CCCCC4)ccc(c23)C1=O [Compound 17a] , system human O-GlcNAcase (hOGA) (Homo sapiens): what Ki was measured?
result: 12 µM

More entries:
query: Return Ki measured with human O-GlcNAcase (hOGA) (Homo sapiens) given this compound: CC(C)C(=O)N[C@@H]1[C@@H](O)[C@H](O)[C@@H](CO)O[C@H]1SCC(=O)NCCCN1C(=O)c2cccc3c(N4CCCCC4)ccc(c23)C1=O [Compound 16f]
result: 23.6 µM

----------
For each record, write down the corresponding inhibition at 100 µM.
target: human O-GlcNAcase (hOGA) (Homo sapiens, UniProt O60502); construct: made in house; host or cells: Escherichia coli BL21(DE3); assay: Enzyme inhibitory activity test against hOGA (4-MU-GlcNAc substrate, end-point fluorescence; Dixon plots for Ki); assay type: biochemical; details: 100 μM inhibitor; 40 μM 4-MU-GlcNAc; pH 6.5; 30°C, 30 min; read-out: Inhibition rate at 100 μM (%) hOGA
Sequence (O60502 whole entry): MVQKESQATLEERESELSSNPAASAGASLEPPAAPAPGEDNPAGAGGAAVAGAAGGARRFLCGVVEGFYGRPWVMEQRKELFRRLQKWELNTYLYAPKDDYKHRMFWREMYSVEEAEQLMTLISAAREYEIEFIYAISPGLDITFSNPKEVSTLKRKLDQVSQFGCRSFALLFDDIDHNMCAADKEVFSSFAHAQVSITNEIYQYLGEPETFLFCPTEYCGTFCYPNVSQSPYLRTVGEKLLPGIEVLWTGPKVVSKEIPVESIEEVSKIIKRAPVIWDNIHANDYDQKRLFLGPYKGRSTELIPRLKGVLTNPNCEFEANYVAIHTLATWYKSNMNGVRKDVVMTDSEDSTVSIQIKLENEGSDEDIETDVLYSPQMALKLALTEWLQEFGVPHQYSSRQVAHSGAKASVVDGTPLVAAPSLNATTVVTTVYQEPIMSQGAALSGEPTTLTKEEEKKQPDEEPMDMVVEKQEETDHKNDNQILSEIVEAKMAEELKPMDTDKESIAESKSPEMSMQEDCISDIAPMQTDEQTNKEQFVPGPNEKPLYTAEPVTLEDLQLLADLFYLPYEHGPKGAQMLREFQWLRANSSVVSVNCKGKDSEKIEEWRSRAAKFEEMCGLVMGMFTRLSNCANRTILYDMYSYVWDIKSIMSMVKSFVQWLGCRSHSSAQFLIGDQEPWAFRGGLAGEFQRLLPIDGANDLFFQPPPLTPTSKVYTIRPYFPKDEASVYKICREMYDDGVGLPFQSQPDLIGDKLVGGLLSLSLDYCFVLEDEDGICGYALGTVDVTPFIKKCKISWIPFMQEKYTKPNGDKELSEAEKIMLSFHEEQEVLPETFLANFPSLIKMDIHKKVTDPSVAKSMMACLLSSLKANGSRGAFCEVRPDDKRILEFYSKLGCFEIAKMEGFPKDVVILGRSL
Answers are plain numbers, in %.

Worked examples follow.
query: Returns the measured inhibition at 100 µM for the input compound. Input: CCCNC(=O)N[C@@H]1[C@@H](O)[C@H](O)[C@@H](CO)O[C@H]1SCC(=O)NCCCN1C(=O)c2cccc3c(N4CCCCC4)ccc(c23)C1=O [Compound 17b]
result: 66.3

query: Form field: reported inhibition at 100 µM of CC(=O)N[C@@H]1[C@@H](O)[C@H](O)[C@@H](CO)O[C@H]1SCC(=O)NCCCN1C(=O)c2cccc3c(N4CCCCC4)ccc(c23)C1=O [Compound 10d]
result: 93.1

query: Field request: inhibition at 100 µM | item: CCCC(=O)N[C@@H]1[C@@H](O)[C@H](O)[C@@H](CO)O[C@H]1SCC(=O)NCCCN1C(=O)c2cccc3c(Br)ccc(c23)C1=O [Compound 16m]
result: 97.1

query: GET /values?readout=inhibition at 100 µM&item= O=C(CS[C@@H]1O[C@H](CO)[C@@H](O)[C@H](O)[C@H]1NC(=O)c1ccccc1)NCCCN1C(=O)c2cccc3c(Br)ccc(c23)C1=O [Compound 16j]
result: 41.1

query: May I ask what inhibition at 100 µM has been recorded for CC(=O)N[C@@H]1[C@@H](O)[C@H](O)[C@@H](CO)O[C@H]1SCC(=O)NCCCN1C(=O)c2cccc3c(N(C)C)ccc(c23)C1=O [Compound 10c] ?
result: 84.4

query: Could you tell me which inhibition at 100 µM is on file for COc1ccc2c3c(cccc13)C(=O)N(CCCNC(=O)CS[C@@H]1O[C@H](CO)[C@@H](O)[C@H](O)[C@H]1NC(C)=O)C2=O [Compound 10b] ?
result: 90.6

For every listed record, write down its inhibition at 100 µM.
1. O=C(CS[C@@H]1O[C@H](CO)[C@@H](O)[C@H](O)[C@H]1NC(=O)c1ccccc1)NCCCN1C(=O)c2cccc3c(N4CCCCC4)ccc(c23)C1=O [Compound 16a]
2. CNC(=O)N[C@@H]1[C@@H](O)[C@H](O)[C@@H](CO)O[C@H]1SCC(=O)NCCCN1C(=O)c2cccc3c(N4CCCCC4)ccc(c23)C1=O [Compound 16h]
3. CC(=O)N[C@@H]1[C@@H](O)[C@H](O)[C@@H](CO)O[C@H]1SCC(=O)NCCCN1C(=O)c2cccc3cccc(c23)C1=O [Compound 2, reference compound]
4. CNC(=O)N[C@@H]1[C@@H](O)[C@H](O)[C@@H](CO)O[C@H]1SCC(=O)NCCCN1C(=O)c2cccc3c(Br)ccc(c23)C1=O [Compound 17c]

result:
1: 22; 2: 85.5; 3: 97.6; 4: 96.7

Hi, could you look up inhibition at 100 µM for each item in my list?
1. CCNC(=O)N[C@@H]1[C@@H](O)[C@H](O)[C@@H](CO)O[C@H]1SCC(=O)NCCCN1C(=O)c2cccc3c(N4CCCCC4)ccc(c23)C1=O [Compound 17a]
2. O=C(CS[C@@H]1O[C@H](CO)[C@@H](O)[C@H](O)[C@H]1NC(=O)C(F)(F)F)NCCCN1C(=O)c2cccc3c(N4CCCCC4)ccc(c23)C1=O [Compound 16g]
3. CCC(=O)N[C@@H]1[C@@H](O)[C@H](O)[C@@H](CO)O[C@H]1SCC(=O)NCCCN1C(=O)c2cccc3c(Br)ccc(c23)C1=O [Compound 16l]
4. O=C(CS[C@@H]1O[C@H](CO)[C@@H](O)[C@H](O)[C@H]1NC(=O)OCc1ccccc1)NCCCN1C(=O)c2cccc3c(N4CCCCC4)ccc(c23)C1=O [Compound 16c]

result:
68.6
82.7
97.7
9.7

Need inhibition at 100 µM for each of these compounds.
1. CC(C)C(=O)N[C@@H]1[C@@H](O)[C@H](O)[C@@H](CO)O[C@H]1SCC(=O)NCCCN1C(=O)c2cccc3c(N4CCCCC4)ccc(c23)C1=O [Compound 16f]
2. CCCC(=O)N[C@@H]1[C@@H](O)[C@H](O)[C@@H](CO)O[C@H]1SCC(=O)NCCCN1C(=O)c2cccc3c(N4CCCCC4)ccc(c23)C1=O [Compound 16e]
3. O=C(CS[C@@H]1O[C@H](CO)[C@@H](O)[C@H](O)[C@H]1NC(=O)c1ccc(F)cc1)NCCCN1C(=O)c2cccc3c(Br)ccc(c23)C1=O [Compound 16k]
4. O=C(CS[C@@H]1O[C@H](CO)[C@@H](O)[C@H](O)[C@H]1NC(=O)c1ccc(F)cc1)NCCCN1C(=O)c2cccc3c(N4CCCCC4)ccc(c23)C1=O [Compound 16b]

result:
1. 72.2
2. 78.9
3. 48
4. 50.9

For each of the items listed, what is its inhibition at 100 µM?
1. CCC(=O)N[C@@H]1[C@@H](O)[C@H](O)[C@@H](CO)O[C@H]1SCC(=O)NCCCN1C(=O)c2cccc3c(N4CCCCC4)ccc(c23)C1=O [Compound 16d]
2. CC(C)C(=O)N[C@@H]1[C@@H](O)[C@H](O)[C@@H](CO)O[C@H]1SCC(=O)NCCCN1C(=O)c2cccc3c(Br)ccc(c23)C1=O [Compound 16n]
3. O=C(CS[C@@H]1O[C@H](CO)[C@@H](O)[C@H](O)[C@H]1NC(=O)C(F)(F)F)NCCCN1C(=O)c2cccc3c(Br)ccc(c23)C1=O [Compound 16o]
4. CC(=O)N[C@@H]1[C@@H](O)[C@H](O)[C@@H](CO)O[C@H]1SCC(=O)NCCCN1C(=O)c2cccc3c(Br)ccc(c23)C1=O [Compound 10a]
5. CCNC(=O)N[C@@H]1[C@@H](O)[C@H](O)[C@@H](CO)O[C@H]1SCC(=O)NCCCN1C(=O)c2cccc3c(Br)ccc(c23)C1=O [Compound 17d]

result:
88
87.8
90.9
98.7
83.5

Ref: paper PMC6669961
